PROTOCOL NOTES: Pharmacokinetics of four compounds in plasma after oral administration of GSBXD and its plus-minus prescriptions in normal rats (LC-MS/MS)
Format: in vivo
MEASUREMENT PARAMETERS: Wistar, rat, 15 mL/kg, group GSBXD, 15 mL/kg intragastrically, normal rats, n = 6, mean ± S.D.
Please provide measured half-life for the entries that follow.
Give bare numbers, in h.

Hey, quick one: what's half-life for each of these?
1. O=C1C[C@@H](c2ccc(O[C@@H]3O[C@H](CO)[C@@H](O)[C@H](O)[C@H]3O)cc2)Oc2cc(O)ccc21
2. C[C@@]12C[C@@]3(O)O[C@@H](O1)[C@]1(COC(=O)c4ccccc4)[C@H]3C[C@@]12O[C@@H]1O[C@H](CO)[C@@H](O)[C@H](O)[C@H]1O
3. CC12CC(O)C3CC1(OC1OC(CO)C(O)C(O)C1O)C3(COC(=O)c1ccccc1)C(=O)O2 (stereo not shown)
4. CC1(C)[C@@H](O[C@H]2O[C@H](C(=O)O)[C@@H](O)[C@H](O)[C@H]2O[C@@H]2O[C@H](C(=O)O)[C@@H](O)[C@H](O)[C@H]2O)CC[C@]2(C)[C@H]3C(=O)C=C4[C@@H]5C[C@@](C)(C(=O)O)CC[C@]5(C)CC[C@@]4(C)[C@]3(C)CC[C@@H]12

7.04
12.6
8.06
5.93

----------
PROTOCOL NOTES: Stability of the four compounds in rat plasma QC samples (freeze-thaw, storage at −80 °C, autosampler)
Type: physicochemical
MEASUREMENT PARAMETERS: rat plasma, −80 °C for a month, middle QC concentration (3.09 × 10^2, 1.38 × 10^2, 1.43 × 10^2, 1.77 × 10^2 ng/mL for 1–4)
Please provide measured Stability, At −80 °C for a Month, Accuracy for the entries that follow.
One number for each entry, in %.

A selection of reference data follows.
{"COMPOUND": "C[C@@]12C[C@@]3(O)O[C@@H](O1)[C@]1(COC(=O)c4ccccc4)[C@H]3C[C@@]12O[C@@H]1O[C@H](CO)[C@@H](O)[C@H](O)[C@H]1O", "RESULT": 95.32}
{"COMPOUND": "O=C1C[C@@H](c2ccc(O[C@@H]3O[C@H](CO)[C@@H](O)[C@H](O)[C@H]3O)cc2)Oc2cc(O)ccc21", "RESULT": 99.99}
{"COMPOUND": "CC12CC(O)C3CC1(OC1OC(CO)C(O)C(O)C1O)C3(COC(=O)c1ccccc1)C(=O)O2 (stereo not shown)", "RESULT": 79.13}

The compound listed as CC1(C)[C@@H](O[C@H]2O[C@H](C(=O)O)[C@@H](O)[C@H](O)[C@H]2O[C@@H]2O[C@H](C(=O)O)[C@@H](O)[C@H](O)[C@H]2O)CC[C@]2(C)[C@H]3C(=O)C=C4[C@@H]5C[C@@](C)(C(=O)O)CC[C@]5(C)CC[C@@]4(C)[C@]3(C)CC[C@@H]12 shows Stability, At −80 °C for a Month, Accuracy equal to 91.37

----------
Please provide measured Cmax for the entries that follow.
PROTOCOL NOTES: Pharmacokinetics of four compounds in plasma after oral administration of GSBXD and its plus-minus prescriptions in normal rats (LC-MS/MS)
Type: in vivo
MEASUREMENT PARAMETERS: Wistar, rat, 15 mL/kg, group GSBXD, 15 mL/kg intragastrically, normal rats, n = 6, mean ± S.D.
Answers are plain numbers, in ng/mL.

{"COMPOUND": "CC1(C)[C@@H](O[C@H]2O[C@H](C(=O)O)[C@@H](O)[C@H](O)[C@H]2O[C@@H]2O[C@H](C(=O)O)[C@@H](O)[C@H](O)[C@H]2O)CC[C@]2(C)[C@H]3C(=O)C=C4[C@@H]5C[C@@](C)(C(=O)O)CC[C@]5(C)CC[C@@]4(C)[C@]3(C)CC[C@@H]12 [Compound 1, glycyrrhizinic acid]", "Cmax, ng/mL": 503}
{"COMPOUND": "CC12CC(O)C3CC1(OC1OC(CO)C(O)C(O)C1O)C3(COC(=O)c1ccccc1)C(=O)O2 (stereo not shown) [Compound 4, albiflorin]", "Cmax, ng/mL": 255}
{"COMPOUND": "O=C1C[C@@H](c2ccc(O[C@@H]3O[C@H](CO)[C@@H](O)[C@H](O)[C@H]3O)cc2)Oc2cc(O)ccc21 [Compound 2, liquiritin]", "Cmax, ng/mL": 193}

The compound listed as C[C@@]12C[C@@]3(O)O[C@@H](O1)[C@]1(COC(=O)c4ccccc4)[C@H]3C[C@@]12O[C@@H]1O[C@H](CO)[C@@H](O)[C@H](O)[C@H]1O [Compound 3, paeoniflorin] shows Cmax equal to 82.8

----------
Please provide measured Stability, At −80 °C for a Month, Accuracy for the entries that follow.
PROTOCOL NOTES: Stability of the four compounds in rat plasma QC samples (freeze-thaw, storage at −80 °C, autosampler)
Assay type: physicochemical
MEASUREMENT PARAMETERS: rat plasma, −80 °C for a month, high QC concentration (1.23 × 10^3, 1.11 × 10^3, 1.14 × 10^3, 1.42 × 10^3 ng/mL for 1–4)
Numbers only, in %.

A selection of reference data follows.
{"COMPOUND": "C[C@@]12C[C@@]3(O)O[C@@H](O1)[C@]1(COC(=O)c4ccccc4)[C@H]3C[C@@]12O[C@@H]1O[C@H](CO)[C@@H](O)[C@H](O)[C@H]1O", "VALUE UNIT": "%", "RESULT": 89.55}
{"COMPOUND": "CC1(C)[C@@H](O[C@H]2O[C@H](C(=O)O)[C@@H](O)[C@H](O)[C@H]2O[C@@H]2O[C@H](C(=O)O)[C@@H](O)[C@H](O)[C@H]2O)CC[C@]2(C)[C@H]3C(=O)C=C4[C@@H]5C[C@@](C)(C(=O)O)CC[C@]5(C)CC[C@@]4(C)[C@]3(C)CC[C@@H]12", "VALUE UNIT": "%", "RESULT": 98.18}
{"COMPOUND": "O=C1C[C@@H](c2ccc(O[C@@H]3O[C@H](CO)[C@@H](O)[C@H](O)[C@H]3O)cc2)Oc2cc(O)ccc21", "VALUE UNIT": "%", "RESULT": 96.71}

The compound listed as CC12CC(O)C3CC1(OC1OC(CO)C(O)C(O)C1O)C3(COC(=O)c1ccccc1)C(=O)O2 (stereo not shown) shows Stability, At −80 °C for a Month, Accuracy equal to 88.48

----------
Please provide measured Cmax for the entries that follow.
PROTOCOL NOTES: Pharmacokinetics of four compounds in plasma after oral administration of GSBXD and its plus-minus prescriptions in normal rats (LC-MS/MS)
Type: in vivo
MEASUREMENT PARAMETERS: Wistar, rat, group GC (extract of Gancao), oral, normal rats, n = 6, mean ± S.D.
Numbers only, in ng/mL.

{"STRUCTURE SMILES STRING": "O=C1C[C@@H](c2ccc(O[C@@H]3O[C@H](CO)[C@@H](O)[C@H](O)[C@H]3O)cc2)Oc2cc(O)ccc21", "Cmax, ng/mL": 139}

// switching to the query molecule
The molecule listed as CC1(C)[C@@H](O[C@H]2O[C@H](C(=O)O)[C@@H](O)[C@H](O)[C@H]2O[C@@H]2O[C@H](C(=O)O)[C@@H](O)[C@H](O)[C@H]2O)CC[C@]2(C)[C@H]3C(=O)C=C4[C@@H]5C[C@@](C)(C(=O)O)CC[C@]5(C)CC[C@@]4(C)[C@]3(C)CC[C@@H]12 shows Cmax equal to 147

----------
Please provide measured AUC(0-t) for the entries that follow.
PROTOCOL NOTES: Pharmacokinetics of four compounds in plasma after oral administration of GSBXD and its plus-minus prescriptions in normal rats (LC-MS/MS)
Type: in vivo
MEASUREMENT PARAMETERS: Wistar, rat, 15 mL/kg, group GSBXD, 15 mL/kg intragastrically, normal rats, n = 6, mean ± S.D.
Procedure: Plasma samples (200 μL) and IS solution (50 μL, 1215 ng/mL for diphenhydramine, 476 ng/mL for chloromycetin) were added in an Eppendorf tube, and this mixture was extracted with methanol (550 μL) by shaking on a vortex-mixer for 2 min, and centrifuged for 10 min at 13,000 rpm. […] To determine the pharmacokinetic parameters of compounds 1–4 in different groups, concentration–time data were analyzed by DAS 3.2 software (Mathematical Pharmacology Professional Committee of China, Shanghai, China, 2011). […]
Answers are plain numbers, in ng·h/mL.

{"COMPOUND": "C[C@@]12C[C@@]3(O)O[C@@H](O1)[C@]1(COC(=O)c4ccccc4)[C@H]3C[C@@]12O[C@@H]1O[C@H](CO)[C@@H](O)[C@H](O)[C@H]1O", "VALUE UNIT": "ng·h/mL", "AUC(0-t)": 825}
{"COMPOUND": "CC1(C)[C@@H](O[C@H]2O[C@H](C(=O)O)[C@@H](O)[C@H](O)[C@H]2O[C@@H]2O[C@H](C(=O)O)[C@@H](O)[C@H](O)[C@H]2O)CC[C@]2(C)[C@H]3C(=O)C=C4[C@@H]5C[C@@](C)(C(=O)O)CC[C@]5(C)CC[C@@]4(C)[C@]3(C)CC[C@@H]12", "VALUE UNIT": "ng·h/mL", "AUC(0-t)": 2630}
{"COMPOUND": "CC12CC(O)C3CC1(OC1OC(CO)C(O)C(O)C1O)C3(COC(=O)c1ccccc1)C(=O)O2 (stereo not shown)", "VALUE UNIT": "ng·h/mL", "AUC(0-t)": 1110}

The compound listed as O=C1C[C@@H](c2ccc(O[C@@H]3O[C@H](CO)[C@@H](O)[C@H](O)[C@H]3O)cc2)Oc2cc(O)ccc21 shows AUC(0-t) equal to 794
